viability at 28.5 h, 10 µM values for the compounds below.
Assay: in vitro
Settings: human, hela cells, % viability
Your answer is read as %, so omit the unit and give the number.

Solved cases (5 shown):
compound	viability at 28.5 h, 10 µM [%]
CC1CCCN(C(=O)C2C3CCC4(CC(=O)c5ccccc5O4)C32)C1 (centres unmarked)	89.8
O=C(Nc1nc2ccccc2s1)c1cc([N+](=O)[O-])ccc1Cl	85.9
CC1(C)CC(NC(=O)C2CCN(S(C)(=O)=O)CC2)c2ccccc2O1 (centres unmarked)	103
CC(NC(=O)C1(Cn2ccnc2)CC1)c1nc(-c2ccccn2)no1 (centres unmarked)	107
O=C(O)c1cccc(-c2cncc(NCc3ccncc3)n2)c1	106

Give viability at 28.5 h, 10 µM for the following compound: `COc1nc(Cl)nc(Oc2ccc(F)cc2)n1`
122

Give viability at 28.5 h, 10 µM for the following compound: `O=C1C=C(N2CCC(CCC3CCN(C4=CC(=O)CCC4)CC3)CC2)CCC1`
105

###

Assay: in vitro
Settings: human, hela cells, % viability
quantity.name: viability at 28.5 h, 10 µM (%)
Your answer is read as %, so omit the unit and give the number.

Solved cases (8 shown):
compound	viability at 28.5 h, 10 µM, %
N#Cc1ccccc1NC(=O)NCCC1=CCCCC1	95.1
COc1ccc(CC2CCCN2C(=O)Cn2cncn2)cc1 (stereo not shown)	97.3
CSCCN1CCC2(CC1)CN(C(=O)C(C)C)c1ccccc12	101
Cc1nn(C)c(N2CCNCC2)c1NC(=O)C(C)c1ccccc1 (stereo not shown) [CBK045929T]	108
O=C(Nc1ccccc1C(=O)O)c1cccc(C(=O)Nc2ccccc2C(=O)O)c1	105
Cc1nc2ccc(C(=O)N3CCN(C(=O)c4ccc(Cl)cc4)CC3)cc2nc1C	85
CCNCc1cc2c(C)nn(-c3ccc(F)cc3)c2[nH]c1=O	107
C#CCNC(=O)CC[C@H]1CNC(=O)[C@@H]2[C@@H](CCN2Cc2ccc(C)cc2)N1C	101

Give viability at 28.5 h, 10 µM for the following compound: `CCNC(=O)N1CC2(CCN(Cc3ccc(Cl)c(Cl)c3)CC2)c2ccccc21`
95.4

Give viability at 28.5 h, 10 µM for the following compound: CCC1CCCCN1C(=O)c1sc2ncccc2c1N (stereo not shown)
112

Give viability at 28.5 h, 10 µM for the following compound: `Cc1ccccc1NC(=O)NCCCN1CCN(C)CC1`
85.2

###

Assay: in vitro
Conditions: human, hela cells, % viability
quantity.name: viability at 28.5 h, 10 µM (%)
Your answer is read as %, so omit the unit and give the number.

compound	obs.value
Cc1cc(Cl)c(OCCN2CCCCCC2)c(Br)c1 [CBK266049G]	91.7

Give viability at 28.5 h, 10 µM for the following compound: COc1ccc2nc(NC(=O)c3ccc4ncsc4c3)sc2c1 [CBK287364]
94.8

Give viability at 28.5 h, 10 µM for the following compound: CCOC(=O)N1CCC(NS(=O)(=O)c2cc(C(=O)OC)n(C)c2)CC1 [CBK304688]
92.3

###

Assay: in vitro
Design: Viability of infected HeLa host cells, resazurin conversion, bulk resorufin fluorescence relative to DMSO
Conditions: human, hela cells; bulk resorufin, mean of 2
quantity.name: viability at 28.5 h, 10 µM (%)
Your answer is read as %, so omit the unit and give the number.

Solved cases (4 shown):
compound	obs.value
Cc1ccc2[nH]c(-c3cccc(NC(=O)c4cccc(CN5CCCC5=O)c4)c3)nc2c1	87.6
CC(=O)NC[C@H]1CN(c2ccc3c(c2)CCSC3)C(=O)O1	101
Cc1cc2cc(C(=O)N3CCC(c4c(C(=O)NC(C)C)sc5ccccc45)C3)ccc2o1 (centres unmarked)	96.2
COc1cc(NS(=O)(=O)c2ccc(N/C=C3/CCc4ccccc4C3=O)cc2)nc(OC)n1	78.6

Please turn your attention to the following entry.
Give viability at 28.5 h, 10 µM for the following compound: CN1CCOC(CNc2nc(-c3ccncc3)nc3c2CCC3)C1 (centres unmarked)
99.5

###

viability at 28.5 h, 10 µM values for the compounds below.
Assay: in vitro
Settings: human, hela cells, % viability
The reply must contain the numeric value and, after it, the unit.

compound	viability at 28.5 h, 10 µM
CC(C)(C)c1ccc(S(=O)(=O)N2CCC3(CC2)OCCO3)cc1	111%

Give viability at 28.5 h, 10 µM for the following compound: `Cc1c(C(=O)N2CCOCC2)sc2nc(-c3ccc(Cl)cc3)nn12`
91.4%

Give viability at 28.5 h, 10 µM for the following compound: `Cc1ccccc1-n1ncc2c(=O)n(CC(=O)N3CCCCC3)cnc21`
108%

Give viability at 28.5 h, 10 µM for the following compound: CC(O)CNCCNc1c(Cl)cccc1[N+](=O)[O-] (centres unmarked) [CBK262802C]
98.8%

Give viability at 28.5 h, 10 µM for the following compound: O=C1NC(=O)C(CCCCN2CCCc3ccccc32)N1 (centres unmarked)
98.3%

###

Assay: in vitro
Details: human, hela cells, % viability
quantity.name: viability at 28.5 h, 10 µM (%)
Your answer is read as %, so omit the unit and give the number.

Solved cases (2 shown):
molecule	obs.value
Cc1c(NC(=O)c2ccccc2Cl)c(=O)n(-c2ccccc2)n1C	105
O=C(/C=C/c1ccc2c(c1)OCO2)NCc1ccc(-c2csnn2)cc1	88.1

Give viability at 28.5 h, 10 µM for the following molecule: `O=C(O)c1cc(S(=O)(=O)Nc2ccc(O)cc2)c(Cl)cc1Cl`
86.8

Give viability at 28.5 h, 10 µM for the following molecule: `COc1ccccc1-c1ccc(CN(C)Cc2ccccc2N2CCOCC2)cc1`
90.6

Give viability at 28.5 h, 10 µM for the following molecule: `O=c1/c(=C/c2ccc(N3CCOCC3)cc2)sc2nc3cc(Br)cnc3n12`
86.9

Give viability at 28.5 h, 10 µM for the following molecule: `Cc1ccc(CN(CCCn2ccnc2)Cc2nccn2C)s1`
91.8

Give viability at 28.5 h, 10 µM for the following molecule: `NCCNC(=O)c1cc(-c2ccc(Cl)cc2)[nH]n1`
110

Give viability at 28.5 h, 10 µM for the following molecule: `Cc1ccc(Oc2cc(-n3nc(C)c(C(N)=O)c3N)ncn2)cc1`
95.7

Give viability at 28.5 h, 10 µM for the following molecule: `Cc1nc(NS(=O)(=O)c2cccc(Cl)c2C)sc1C(=O)O`
110

Give viability at 28.5 h, 10 µM for the following molecule: COC(=O)c1ccc(N2CCN(Cc3nc(C4CC4)no3)C(C)C2)cc1 (stereo not drawn)
98

Give viability at 28.5 h, 10 µM for the following molecule: `CCSc1nc(SCC)c2c3c([nH]c2n1)CCCC3`
94.6

###

Test system: CTL2-GFP (C. trachomatis L2/434/Bu, GFP-expressing)
Construct: L2/434/Bu, GFP-expressing
Assay: microbe, parasite or virus in culture
Set-up: Intracellular C. trachomatis growth in HeLa cells, bulk GFP fluorescence relative to DMSO
Conditions: Chlamydia trachomatis, HeLa, 28.5 h; bulk GFP, mean of 2; read-out: % of control remaining
activity at 10 µM values for the compounds below.
The reply must contain the numeric value and, after it, the unit.

Solved cases (3 shown):
substance.smiles	quantity.name	obs.value
COc1cccc(CNc2ccc(N3CCOCC3)cc2)c1OCc1ccccc1F	activity at 10 µM	65.4%
CC(C)(C)c1cc(C(=O)Nc2ccncc2)n(Cc2ccc(Cl)cc2Cl)n1	activity at 10 µM	24.2%
O=C(Nc1ccccc1C(=O)Nc1nnc(C(F)(F)F)s1)c1ccccc1Cl	activity at 10 µM	45.1%

State measured activity at 10 µM of the compound `CC(=O)Nc1ccc(-c2cccc(COC3CCN(C(=O)c4ccc(OC(C)C)cc4)CC3)c2)cc1` with CTL2-GFP (C. trachomatis L2/434/Bu, GFP-expressing).
6.64%

###

Assay: in vitro
Conditions: human, hela cells, % viability
viability at 28.5 h, 10 µM values for the compounds below.
Your answer is read as %, so omit the unit and give the number.

compound	value.unit	obs.value
O=C(CN1CCCC[C@H]2CN(C(=O)c3cccs3)C[C@H]21)NC1CC1 [CBK285504]	%	90.5
O=C1CCC(=O)N1CCOc1nccnc1N1CCN(CCc2ccccn2)CC1 [CBK084309]	%	109
Cc1cc(-c2cccs2)c(C#N)c(SCc2cccnc2)n1 [CBK270172]	%	81

Give viability at 28.5 h, 10 µM for the following compound: Fc1ccc2[nH]c3c(c2c1)CCN1C(c2ccncc2)N2CCC31CC2 (centres unmarked) [CBK284437]
78.6

Give viability at 28.5 h, 10 µM for the following compound: COC(=O)Nc1nc(Cl)cc(Cl)n1 [CBK027433]
93.8

###

Experiment: in vitro
Conditions: human, hela cells, % viability
viability at 28.5 h, 10 µM values for the compounds below.
Your answer is read as %, so omit the unit and give the number.

Solved cases (8 shown):
compound	obs.value
O=C(O)c1ccccc1-c1nc(-c2ccccc2F)no1 [CBK268022]	100
COCCn1c(SCc2cc(=O)oc3cc(C)ccc23)nnc1-c1ccc(Cl)cc1 [CBK297517]	87.8
COc1cnc(-c2cnn(C)c2)c(NC(=O)c2cc(C)oc2C)n1 [CBK145218]	93.2
O=C(Nc1ccccc1F)c1cc(Cl)sc1Cl [CBK085969]	93.3
CCOc1ccc(S(=O)(=O)N2CCC(C(=O)NCCO)CC2)cc1 [CBK269817]	88.6
COc1ccc2c(c1)CCCN2C(=O)Cn1nc(C)cc1C [CBK282042]	91.5
O=C(O)C[C@@H]1CCN(C(=O)NCc2ccccc2)C[C@@H]1CC1=NCCc2ccccc21 [CBK289161]	94.7
O=S(=O)(Cc1ccc(Cl)cc1Cl)N1CCOCC1 [CBK058967]	78.1

Give viability at 28.5 h, 10 µM for the following compound: COc1cc(NC(=O)c2ccc3c(c2)C(=O)N(Cc2cccnc2)C3=O)c(C(=O)O)cc1OC [CBK266802]
88.1
